- Protocol: physchem
- Assay type: physicochemical
The compounds listed here are annotated with their logP.
Endpoint Name: logP

>>> measured_value("Cn1nc(C(F)(F)C(F)(F)F)c(Br)c1C(=O)Nc1ccc(Cl)c(C(=O)NC2CC2)c1 [Ik-26]")
"3.22^a)"
>>> measured_value("CC(C)N(C(=O)c1c(C(F)(F)F)c(C(F)(F)C(F)(F)F)nn1C)c1ccc(Cl)c(C(=O)NCC(F)(F)F)c1 [Ik-139]")
"4.02^a)"
>>> measured_value("C=CCNC(=O)c1cc(NC(=O)c2c(C(F)(F)F)c(C(F)(F)C(F)(F)F)nn2C)ncc1Br [Ik-315]")
"3.42^a)"
>>> measured_value("Cn1nc(C(F)(F)F)c(Cl)c1C(=O)Nc1ccc(Cl)c(C(=O)NCc2ccccc2)c1 [Ik-20]")
"3.46^a)"
>>> measured_value("Cc1nc(C(F)(F)F)ccc1C(=O)Nc1ccc(Cl)c(C(=O)NCC(F)(F)F)c1 [Ir-11]")
"2.67^a)"
>>> measured_value("Cc1nc(C(F)(F)F)ncc1C(=O)Nc1ccc(Cl)c(C(=O)NCC=CCl)c1 [Ib-21]")
"2.69^a)"
>>> measured_value("Cn1nc(OCC(F)(F)F)c(Br)c1C(=O)Nc1ccc(Cl)c(C(=O)NCC(F)(F)F)c1 [Ik-257]")
"3.26^a)"
>>> measured_value("Cn1nc(-c2ccc(Cl)cc2Cl)c(Br)c1C(=O)Nc1ccc(Cl)c(C(=O)NC2CC2)c1 [Ik-250]")
"3.59^a)"

###

- Protocol: physchem
- Assay type: physicochemical
# logP per entry
Endpoint Name: logP

>>> measured_value("CC(C)NC(=O)c1cc(NC(=O)c2c(Br)c(C(F)(F)C(F)(F)F)nn2C)ccc1Cl")
"3.49^a)"
>>> measured_value("Cn1nc(C(F)(F)C(F)(F)F)c(C(F)(F)F)c1C(=O)Nc1cc(C(=O)NCC(F)(F)F)c(F)cc1F")
"3.64^a)"
>>> measured_value("Cn1nc(C(F)(F)C(F)(F)F)c(C(F)(F)F)c1C(=O)Nc1ccc(Cl)c(C(=O)NCc2ccc(F)cn2)c1")
"4.75^a)"
>>> measured_value("CC(NC(=O)c1cc(NC(=O)c2cnc(C(F)(F)C(F)(F)F)nc2C(F)(F)F)ccc1Cl)C1CC1 (stereo not drawn)")
"3.76^a)"
>>> measured_value("Cn1nc(C(F)(F)C(F)(F)F)c(C(F)(F)F)c1C(=O)Nc1cc(Cl)c(Br)c(C(=O)NC2CC2)c1")
"3.81^a)"
>>> measured_value("Cn1nc(C(F)(F)F)c(Cl)c1C(=O)Nc1ccc(Cl)c(C(=O)NC2CC2)c1")
"2.77^a)"
>>> measured_value("Cn1nc(C(F)(F)C(F)(F)F)c(C(F)(F)F)c1C(=O)Nc1ccc(OC(F)F)c(C(=O)NC2CC2)c1")
"3.49^a)"
>>> measured_value("O=C(NCc1ccccc1)c1cc(NC(=O)c2cnc(C(F)(F)C(F)(F)C(F)(F)F)nc2C(F)(F)F)ccc1Cl")
"4.13^a)"
>>> measured_value("Cn1nc(C(F)(F)C(F)(F)F)c(C(F)(F)F)c1C(=O)Nc1ccc(Cl)c(C(=O)NCc2ccccc2)c1")
"3.90^a)"
>>> measured_value("Cn1nc(C(F)(F)F)cc1C(=O)Nc1ccc(Cl)c(C(=O)NC2CC2)c1")
"2.48^a)"
>>> measured_value("Cn1nc(C(F)(F)C(F)(F)F)c(C(F)(F)F)c1C(=O)Nc1cc(C(=O)NCc2ccccc2)c(Cl)cc1F")
"4.00^a)"
>>> measured_value("CC(C)N(C(=O)c1c(C(F)(F)F)c(C(F)(F)C(F)(F)F)nn1C)c1ccc(Cl)c(C(=O)NC2CC2)c1")
"3.74^a)"
>>> measured_value("Cn1nc(C(F)(F)OC(F)(F)C(F)(F)OC(F)(F)F)c(Br)c1C(=O)Nc1ccc(Cl)c(C(=O)NC2CC2)c1")
"4.31^a)"
>>> measured_value("Cn1nc(C(F)(F)OC(F)(F)C(F)(F)OC(F)(F)F)c(I)c1C(=O)Nc1ccc(Cl)c(C(=O)NC2CC2)c1")
"3.66^a)"
>>> measured_value("O=C(NCc1ccccc1)c1cc(NC(=O)c2cnc(C(F)(F)C(F)(F)F)nc2C(F)(F)C(F)(F)F)ccc1Cl")
"4.20^a)"

Origin of measurements: patent US8946234B2
